Reference for the values: patent US20230233569A1

target: KRAS G12S (Homo sapiens, UniProt P01116+P62937, G12S); experiment: Disruption of BRAF RBD interaction with Ras (FRET / MOA assay, with Cyclophilin A); assay type: biochemical; conditions: read-out: KRAS G12S FRET data, IC50
Sequence (P01116 1-169 isoform P01116-2 G12S limits assumed): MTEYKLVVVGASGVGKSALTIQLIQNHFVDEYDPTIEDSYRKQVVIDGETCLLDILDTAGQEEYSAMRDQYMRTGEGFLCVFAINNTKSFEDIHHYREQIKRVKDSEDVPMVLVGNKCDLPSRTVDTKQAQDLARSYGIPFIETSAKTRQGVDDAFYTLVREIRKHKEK
Sequence (P62937 whole entry): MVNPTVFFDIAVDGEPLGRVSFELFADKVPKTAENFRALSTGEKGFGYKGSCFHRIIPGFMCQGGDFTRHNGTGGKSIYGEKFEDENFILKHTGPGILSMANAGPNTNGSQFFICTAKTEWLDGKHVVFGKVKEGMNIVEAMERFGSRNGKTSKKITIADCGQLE
Give measured IC50 for each item. Keep answers brief.

Query: System KRAS G12S (Homo sapiens, UniProt P01116+P62937, G12S). Read-out IC50. Item CCn1c(-c2cnccc2COC)c2c3cc(ccc31)-c1cc(O)cc(c1)C[C@H](NC(=O)[C@H](C(C)C)N(C)C(=O)c1ncco1)C(=O)N1CCC[C@H](N1)C(=O)OCC(C)(C)C2 . Report value.
Result: 100 to 1000 nM

Query: System KRAS G12S (Homo sapiens, UniProt P01116+P62937, G12S). Read-out IC50. Item C=CC(=O)N1CC[C@H](C(=O)N(C)[C@H](C(=O)N[C@H]2Cc3cc(O)cc(c3)-c3ccc4c(c3)c(c(-c3cc(C)cnc3[C@H](C)OC)n4CC)CC(C)(C)COC(=O)[C@@H]3CCCN(N3)C2=O)C(C)C)C1 . Report value.
Result: 1000 to 10000 nM

Query: System KRAS G12S (Homo sapiens, UniProt P01116+P62937, G12S). Read-out IC50. Item C=CC(=O)N1CC[C@H](C(=O)N(C)[C@H](C(=O)N[C@H]2Cc3cc(O)cc(c3)-c3ccc4c(c3)c(c(-c3ccc(CN5CCCC5)cc3)n4CC)CC(C)(C)COC(=O)[C@@H]3CCCN(N3)C2=O)C(C)C)C1 . Report value.
Result: 1000 to 10000 nM

Query: System KRAS G12S (Homo sapiens, UniProt P01116+P62937, G12S). Read-out IC50. Item CCn1c(-c2cccnc2[C@H](C)OC)c2c3cc(ccc31)-c1csc(n1)C[C@H](NC(=O)[C@H](C(C)C)N(C)C(=O)N1CCN(C(=O)CN(C)C)CC1)C(=O)N1CCC[C@H](N1)C(=O)OCC(C)(C)C2 (atropisomer, axis not shown) . Report value.
Result: 100 to 1000 nM

----------
biological target: NRAS G12C (Homo sapiens, UniProt P01111+P62937, G12C); assay: Disruption of BRAF RBD interaction with Ras (FRET / MOA assay, with Cyclophilin A); assay type: biochemical; conditions: NRAS G12C; read-out: NRAS G12C FRET data IC50
Sequence (P01111 whole entry G12C): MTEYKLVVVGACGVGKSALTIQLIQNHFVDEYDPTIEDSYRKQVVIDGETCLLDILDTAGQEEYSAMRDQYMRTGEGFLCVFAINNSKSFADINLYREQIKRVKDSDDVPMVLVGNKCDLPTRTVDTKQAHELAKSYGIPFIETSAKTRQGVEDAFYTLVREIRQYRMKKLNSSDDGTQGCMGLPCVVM
Sequence (P62937 whole entry): as the sequence (P62937 whole entry) above
pIC50: −log10 of the molar value.
measuredQuantity: pIC50

Query: Identify measured pIC50 corresponding to C=CC(=O)N1CC[C@H](C(=O)N(C)[C@H](C(=O)N[C@H]2C[C@H]3CN(CCCO3)c3ccc4c(c3)c(c(-c3cccnc3[C@H](C)OC)n4CC)CC(C)(C)COC(=O)[C@@H]3CCCN(N3)C2=O)C(C)C)C1 (racemic)
Result: < 5.00

Query: Identify measured pIC50 corresponding to CCn1c(-c2cccnc2[C@H](C)OC)c2c3cc(ccc31)-c1csc(n1)C[C@H](NC(=O)[C@H](C(C)C)N(C)C(=O)N1CC[C@@]3(CCN(C)C3=O)C1)C(=O)N1CCC[C@H](N1)C(=O)OCC(C)(C)C2 (single isomer, unassigned)
Result: 6.00 to 7.00

Query: Identify measured pIC50 corresponding to CCn1c(-c2cccnc2[C@H](C)OC)c2c3cc(ccc31)-c1cc(O)cc(c1)C[C@H](NC(=O)[C@H](C(C)C)N(C)C(=O)C1NCCC13CC3)C(=O)N1CCC[C@H](N1)C(=O)OCC(C)(C)C2 (stereo partly drawn)
Result: 7.00 to 8.00

Query: Identify measured pIC50 corresponding to CCn1c(-c2cccnc2[C@H](C)OC)c2c3cc(ccc31)-c1csc(n1)C[C@H](NC(=O)[C@H](C(C)C)N(C)C(=O)N1C[C@H]3CN(C)C[C@H]3C1)C(=O)N1CCC[C@H](N1)C(=O)OCC(C)(C)C2
Result: 7.00 to 8.00

Query: Identify measured pIC50 corresponding to CCn1c(-c2cccnc2[C@H](C)OC)c2c3cc(ccc31)-c1csc(n1)C[C@H](NC(=O)[C@H](C(C)C)N(C)C(=O)N1C[C@H](N)[C@@H](F)C1)C(=O)N1CCC[C@H](N1)C(=O)OCC(C)(C)C2 (atropisomer, axis not shown)
Result: 7.00 to 8.00

Query: Identify measured pIC50 corresponding to C=C[C@@H]1C[C@]1(N)C(=O)N(C)[C@H](C(=O)N[C@H]1Cc2cc(O)cc(c2)-c2ccc3c(c2)c(c(-c2cccnc2[C@H](C)OC)n3CC)CC(C)(C)COC(=O)[C@@H]2CCCN(N2)C1=O)C(C)C
Result: 6.00 to 7.00

Query: Identify measured pIC50 corresponding to CCn1c(-c2cccnc2[C@H](C)OC)c2c3cc(ccc31)-c1csc(n1)C[C@H](NC(=O)[C@H](C(C)C)N(C)C(=O)N1CC(OC)C1)C(=O)N1CC[C@H](C)[C@H](N1)C(=O)OCC(C)(C)C2
Result: 6.00 to 7.00

Query: Identify measured pIC50 corresponding to CCn1c(-c2cccnc2[C@H](C)OC)c2c3cc(ccc31)-c1csc(n1)C[C@H](NC(=O)[C@H](C(C)C)N(C)C(=O)N1CCN(C(=O)[C@H]3CCCN3C)CC1)C(=O)N1CCC[C@H](N1)C(=O)OCC(C)(C)C2 (atropisomer, axis not shown)
Result: 7.00 to 8.00

Query: Identify measured pIC50 corresponding to C=CC(=O)N1CC(OC[C@H](C(=O)N[C@H]2Cc3cccc(c3)-c3ccc4c(c3)c(c(-c3cccnc3[C@H](C)OC)n4CC)CC(C)(C)COC(=O)[C@@H]3CCCN(N3)C2=O)C(C)C)C1 (racemic) [Example A483]
Result: 6.00 to 7.00
